B1: SMOC2 (parent)
chain: QKPLCASDGRTFLSRCEFQRAKCK

- Variants of: B1
- assay.overview: protein stability index of a GFP-peptide fusion (GPS, HEK-293T) (PSI 1-6); higher = more stable;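 note: lentivirally expressed fusions sorted by FACS into six bins by GFP to DsRed ratio, PSI derived from sequencing read proportions per bin multiplied by bin number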
- conditions.used: c terminus: a fixed tail appended
assay.metric: protein stability index

- mutant.designation: "C16N"
  assay.metric: "protein stability index"
  reading: 4.28
- mutant.designation: "K22N"
  assay.metric: "protein stability index"
  reading: 3.07
- mutant.designation: "L4H"
  assay.metric: "protein stability index"
  reading: 2.59
- mutant.designation: "T11G"
  assay.metric: "protein stability index"
  reading: 2.6
- mutant.designation: "L4P"
  assay.metric: "protein stability index"
  reading: 2.79
- mutant.designation: "C23L"
  assay.metric: "protein stability index"
  reading: 3.03
- mutant.designation: "E17K"
  assay.metric: "protein stability index"
  reading: 3.19
- mutant.designation: "A6L"
  assay.metric: "protein stability index"
  reading: 2.47
- mutant.designation: "Q1T"
  assay.metric: "protein stability index"
  reading: 3.41
- mutant.designation: "A6F"
  assay.metric: "protein stability index"
  reading: 1.89
- mutant.designation: "G9H"
  assay.metric: "protein stability index"
  reading: 2.75

Reference source: the supplement of paper PMC10567573
